- Study target: Single-stranded DNA cytosine deaminase (Homo sapiens) (UniProt Q9GZX7)
- Sequence (Q9GZX7 whole entry, looked up): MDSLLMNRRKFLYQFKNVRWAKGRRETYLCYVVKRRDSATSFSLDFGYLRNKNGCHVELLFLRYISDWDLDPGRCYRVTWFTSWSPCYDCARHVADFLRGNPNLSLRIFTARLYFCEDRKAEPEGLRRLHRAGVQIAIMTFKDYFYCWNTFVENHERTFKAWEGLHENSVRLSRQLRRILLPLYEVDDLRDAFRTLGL
- Run description: Primary qHTS assay for inhibitors of Activation Induced Cytidine Deaminase (AID): AID signal; further: nearly all actives have a fitted effect of over 25% in size
- Run parameters: AID deamination FRET fluorescence, UDG-coupled, 4 h; series mostly up to 115 µM
Hit rate of the full screen: of about 91,000 compounds, about 290 (0.32%) were called active. About 7% were inconclusive and are not listed. The call rests on the fitted dose curve; in most records, active means well fitted inhibition curve with a large enough effect; inconclusive means small, poorly fitted or top-dose-only effect; inactive means no such curve, though single readings can be large or run the other way. The sample as a whole holds a higher share of actives than the screen did.
Your answer must be one of the following: active, inactive

>>> discrete_label("CC(C)(C)OC(=O)N1CCC(c2c(C(=O)N3CCN(c4cccc(Cl)c4)CC3)cnn2-c2cccc(Cl)c2)CC1")
"inactive"
>>> discrete_label("COc1ccc(S(=O)(=O)N2CCc3c(c(-c4nnc(SC)n4C)nn3C)C2)cc1")
"inactive"
>>> discrete_label("CC(C)c1ccc(Cn2c(COc3ccccc3)nc3ccccc32)cc1")
"inactive"
>>> discrete_label("COc1ccc(OC)c(-n2cnc3c2NC(=O)CC3c2ccsc2)c1 (stereo not drawn)")
"inactive"
>>> discrete_label("CCOC(=O)C1CCN(C(=O)COC(=O)c2cn(-c3ccccc3)nc2-c2ccc(Cl)cc2)CC1")
"inactive"
>>> discrete_label("O=C(CCCCC(=O)OCC(=O)c1ccc(Br)cc1)OCC(=O)c1ccc(Br)cc1")
"inactive"

Test call, this compound: "O=C1CCCc2nccc(-c3ccc(Cl)cc3)c21"
inactive

For this compound, state the assay outcome: "CCCCCCCCc1cnc(-c2ccc(O)cc2)nc1"
inactive

Dear all, I need the recorded test outcome for "Cc1cc(-c2ccccc2)c(-c2nc3ccccc3s2)[nH]1" , thank you.
inactive

Please state the recorded outcome for this compound: "COc1ccc(-c2csc(N)c2C#N)cc1"
inactive

Recorded test call requested for "C=CCNCc1ccc(CC)cc1"
inactive

So what was the verdict on "CC(C)c1ccc2c(c1)c(SC(C)(C)C)c(CC(C)(C)C(=O)O)n2Cc1ccc(Cl)cc1" in this test?
active

For "Cc1ccc(Nc2c3c(nc4ccccc24)CCC3)cc1" , which call appears in the assay record?
inactive

Identify the outcome logged in this assay for the compound shown: "Cc1ccc2c(c1)-c1cccc3cccc(c13)C2=O"
inactive

Just curious, what result did Cc1ccc(-n2c(=O)c3sccc3n(CC(=O)N3CCCCC3C)c2=O)cc1C (stereo not drawn) get here?
inactive

Test call, this compound: "CCN(C(=O)C1CCN(c2nc3ccccc3o2)CC1)c1ccc(F)c(F)c1"
inactive

* * *

- Study target: Single-stranded DNA cytosine deaminase (Homo sapiens)
- Run description: Primary qHTS assay for inhibitors of Activation Induced Cytidine Deaminase (AID): AID signal; further: nearly all actives have a fitted effect of over 25% in size
- Run parameters: AID deamination FRET fluorescence, UDG-coupled, 4 h; series mostly up to 115 µM
Screen size: about 91,000 compounds; about 290 (0.32%) were called active. Roughly 7% stayed inconclusive and do not appear here. Calls follow the shape of the dose curve; as a rule, active = well fitted inhibition curve with a large enough effect; inconclusive = small, poorly fitted or top-dose-only effect; inactive = no such curve, though single readings can be large or run the other way. For the sample, actives were picked, then their nearest neighbours and some compounds at random.
Your reply should match one of these outcome classes. active, inactive

Check out these entries, answers already filled in.
>>> discrete_label("C(#CCN1CCCCC1)COC(c1ccccc1)c1ccccc1")
"inactive"
>>> discrete_label("Cc1c(Cl)cccc1NC(=O)C1CCCN(C(=O)c2cnn(-c3ccccc3)c2-n2cccc2)C1 (configuration not stated)")
"active"
>>> discrete_label("CCCCNc1oc(/C=C/c2ccc(OCC)cc2)nc1C#N")
"inactive"
>>> discrete_label("CC(=O)N1CCC(NC(=O)c2cc(C)nc3cc(F)ccc23)CC1")
"inactive"
>>> discrete_label("CCOc1ccc(C(=O)Nc2cc(C(F)(F)F)ccc2Cl)cc1Cl")
"inactive"
>>> discrete_label("O=Cc1cccc(Br)c1O")
"inactive"
>>> discrete_label("Cc1c(F)cccc1NC(=O)C12CC3CC(CC(C3)C1)C2")
"inactive"
>>> discrete_label("Cc1ccccc1NC(=O)CSC1=C(C#N)C(c2ccccc2F)CC(=O)N1 (configuration not stated)")
"inactive"

# lookup: test call for "CCOc1ccc(C(=O)CCC(=O)OCC(=O)c2ccc3c(c2)OCCO3)cc1"
inactive

Which outcome was assigned to CCCCOc1ccc(C(=O)N2CC(=O)Nc3ccc(Br)cc3C2c2ccc(F)cc2)cc1 (configuration not stated) in this test?
active

What classification did "O=C(O)c1ccc(-c2ccccc2)cc1C(=O)O" end up with in this test?
inactive
